SYSTEM UNDER TEST: T1, Anti-CD28 scFv (VH - linker 1 - VL) (biotinylated (site not stated))
T1 construct: Biotinylated scFv captured on neutravidin coated plates in the panning ELISA
T1 sequence (scFv, as listed by the source): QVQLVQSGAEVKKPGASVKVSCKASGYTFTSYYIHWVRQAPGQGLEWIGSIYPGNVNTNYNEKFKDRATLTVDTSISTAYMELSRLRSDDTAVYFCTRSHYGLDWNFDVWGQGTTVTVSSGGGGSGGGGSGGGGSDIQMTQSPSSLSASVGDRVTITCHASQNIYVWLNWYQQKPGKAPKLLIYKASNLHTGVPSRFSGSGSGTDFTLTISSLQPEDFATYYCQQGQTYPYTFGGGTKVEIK
TEST DESCRIPTION: phage ELISA; biotinylated anti-CD28 scFv on neutravidin plate, clonal phage supernatant, anti-M13-HRP detection;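 also: before phage addition, wells were pretreated with soluble CD28 protein in blocking buffer, or with blocking buffer only as the comparison, then phage were added without washing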
Consider the following binders and their measured CD28 scFv signal readings.
// no unit string in output, number only

MDWCPRDLWTECFS (tested as crude phage supernatant) [Phage-305]	2.4
MDWCPRHLWFECFN (tested as crude phage supernatant) [Phage-293]	2.49

query: Tell me the measured CD28 scFv signal of MDWCPRSLWDYCFA (tested as crude phage supernatant) [Phage-294] , please.
result: 2.49

query: Quick one: MDWCPIYLWAECFN (tested as crude phage supernatant) [Phage-299]
result: 2.45

query: Quick one: MDWCPRYLWHECFF (tested as crude phage supernatant) [Phage-301]
result: 2.45

query: Quick one: MDWCPMFLWHECFN (tested as crude phage supernatant) [Phage-309]
result: 2.38

query: Quick one: MDWCPRYLWHVCFD (tested as crude phage supernatant) [Phage-302]
result: 2.44

query: Quick one: MDWCPIALWDFCFA (tested as crude phage supernatant) [Phage-288]
result: 2.52
